Tested on: RAW-Dual (murine macrophage reporter line)
protocol details: IRF reporter (Lucia luciferase) activity fold change vs agonist alone; higher = enhanced IRF activity
run conditions: modulator concentration 10 µM; agonist: LPS 0.1 ug/mL
Would you please tag the item true (1) when its IRF reporter is 1 or above, and false (0) when it is below?

{"columns": ["molecule", "class"],
 "data": [
  ["CCOc1ccc(C=C2SC(=S)N(C)C2=O)cc1", "true (1)"],
  ["Clc1ccccc1C1Nc2cccc3cccc(c23)N1", "false (0)"],
  ["CCN(CC)c1ccc(C=NNC(=O)c2ccncc2)c(O)c1", "true (1)"],
  ["CC12CC3(C)CC(C)(C1)CC(C(=O)NC(C)(C)CO)(C2)C3", "true (1)"],
  ["Clc1ccc(C2C=C(c3ccccc3)Nc3ncnn32)cc1 (stereo unspecified)", "true (1)"],
  ["Cc1ccc2[nH]c3nc(C)cc(C)c3c(=O)c2c1", "true (1)"],
  ["Cc1ccc(NC(=O)C(C#N)=Cc2ccc(-c3cccc([N+](=O)[O-])c3)o2)cc1", "true (1)"],
  ["CC(=O)CCc1oc2ccc([N+](=O)[O-])cc2c1-c1ccc(C)o1", "false (0)"]
]}

* * *

Item-by-item account of IRF reporter
System: RAW-Dual (murine macrophage reporter line)
protocol details: IRF reporter (Lucia luciferase) activity fold change vs agonist alone; higher = enhanced IRF activity
run conditions: modulator concentration 10 µM; agonist: LPS 0.1 ug/mL
reported endpoint: IRF reporter

{"columns": ["compound", "value observed"],
 "data": [
  ["CCCCCCC1OCC2(CO)C(C)C=C(C)C1C2C (stereo not given)", 1.05],
  ["COC(=O)c1cc(OC)c(=O)c2c(OC)c(OC)ccc2c1", 1.02],
  ["CCOc1ccccc1NC(=O)Nc1ccc2c(c1)CCC(=O)N2C", 0.282],
  ["CN1C(=N)NC(=O)C1=Cc1cc(Br)cc(Br)c1O", 0.951],
  ["CCC(=O)N(CCC(c1ccccc1OC)C1CCOC(C)(C)C1)Cc1ccc(OC)cc1 (stereo not given)", 1.23]
]}

* * *

Tested on: RAW-Dual (murine macrophage reporter line)
protocol details: IRF reporter (Lucia luciferase) activity fold change vs agonist alone; higher = enhanced IRF activity
run conditions: modulator concentration 10 µM; agonist: LPS 0.1 ug/mL
reported endpoint: IRF reporter

{"columns": ["mol", "value observed"],
 "data": [
  ["O=c1cc(-c2ccccc2)oc2cc(O)c(O)c(O)c12", 1],
  ["O=c1c(O)c(-c2ccc(O)cc2O)oc2cc(O)cc(O)c12", 1.11],
  ["CC#CCn1c(N2CCC[C@@H](N)C2)nc2c1c(=O)n(Cc1nc(C)c3ccccc3n1)c(=O)n2C", 1.34]
]}

* * *

Tested on: RAW-Dual (murine macrophage reporter line)
protocol details: IRF reporter (Lucia luciferase) activity fold change vs agonist alone; higher = enhanced IRF activity
run conditions: modulator concentration 10 µM; agonist: MPLA […]
Item-by-item account of IRF reporter
reported endpoint: IRF reporter

{"columns": ["mol", "system under test", "value observed"],
 "data": [
  ["CC(C)(Oc1ccc(Cl)cc1)C(=O)Nc1cnoc1", "RAW-Dual (murine macrophage reporter line)", 1.04],
  ["CNc1ccc([N+](=O)[O-])cc1-n1cnc(-c2ccc([N+](=O)[O-])cc2)c1", "RAW-Dual (murine macrophage reporter line)", 1.58],
  ["COc1ccc(Cn2c(SC)nc3c(c2=O)C2(CCCCC2)Cc2ccccc2-3)cc1", "RAW-Dual (murine macrophage reporter line)", 1.33],
  ["O=C(NCCN1CCN(c2ccc(Cl)cc2)CC1)c1ccncc1", "RAW-Dual (murine macrophage reporter line)", 0.986],
  ["COc1ccc(-c2coc3cc(O)cc(O)c3c2=O)cc1", "RAW-Dual (murine macrophage reporter line)", 1.37]
]}
